The reported numbers originate from ChEMBL document CHEMBL5046254.

- System: Mycobacterium tuberculosis
- Protocol summary: microbe, parasite or virus in culture
- Condition: H37Rv ATCC 27294, 192 h
Property measured: MIC90

Study these solved cases before continuing.
[
  {
    "Compound": "CC(=O)N1N=C(c2ccccc2O)CC1c1cccc(F)c1 (configuration not stated)",
    "Target under test": "Mycobacterium tuberculosis",
    "MIC90": "64 µg/mL"
  },
  {
    "Compound": "CC(=O)N1N=C(c2ccccc2O)CC1c1ccccc1F (configuration not stated)",
    "Target under test": "Mycobacterium tuberculosis",
    "MIC90": "> 256 µg/mL"
  },
  {
    "Compound": "NC(=S)N1N=C(c2ccccc2O)CC1c1ccc(O)cc1 (configuration not stated)",
    "Target under test": "Mycobacterium tuberculosis",
    "MIC90": "64 µg/mL"
  },
  {
    "Compound": "CC(=O)N1N=C(c2ccccc2O)CC1c1ccc(Br)cc1 (configuration not stated)",
    "Target under test": "Mycobacterium tuberculosis",
    "MIC90": "> 256 µg/mL"
  },
  {
    "Compound": "Oc1ccc(C2CC(c3ccccc3O)=NN2)cc1 (configuration not stated)",
    "Target under test": "Mycobacterium tuberculosis",
    "MIC90": "128 µg/mL"
  },
  {
    "Compound": "Oc1ccccc1C1=NNC(c2cccc(F)c2)C1 (configuration not stated)",
    "Target under test": "Mycobacterium tuberculosis",
    "MIC90": "64 µg/mL"
  },
  {
    "Compound": "CC(=O)N1N=C(c2ccccc2O)CC1c1ccc(Cl)cc1 (configuration not stated)",
    "Target under test": "Mycobacterium tuberculosis",
    "MIC90": "> 256 µg/mL"
  },
  {
    "Compound": "COc1ccc(C2CC(c3ccccc3O)=NN2C(C)=O)cc1 (configuration not stated)",
    "Target under test": "Mycobacterium tuberculosis",
    "MIC90": "> 256 µg/mL"
  }
]

Name the recorded MIC90 for COc1ccccc1C1CC(c2ccccc2O)=NN1C(C)=O (configuration not stated) .
> 256 µg/mL

Name the recorded MIC90 for Cc1ccc(C2CC(c3ccccc3O)=NN2C(N)=S)cc1 (configuration not stated) .
8 µg/mL

Name the recorded MIC90 for COc1cccc(C2CC(c3ccccc3O)=NN2C(C)=O)c1 (configuration not stated) .
> 256 µg/mL

Name the recorded MIC90 for CC(=O)N1N=C(c2ccccc2O)CC1c1ccccc1Br (configuration not stated) .
> 256 µg/mL

---

- Test system: Mycolicibacterium aurum
- Protocol summary: Antimycobacterial activity against Mycobacterium aurum ATCC 10437 cultured in GAST-Fe media incubated for 72 hrs by resazurin microtiter assay
- Format: functional
Property measured: MIC90 (µg/mL)
Provide the reading as a plain figure in µg/mL.

Study these solved cases before continuing.
[
  {
    "Compound": "NC(=S)N1N=C(c2ccccc2O)CC1c1ccc(O)cc1 (centres undefined)",
    "Unit": "µg/mL",
    "MIC90": 128
  },
  {
    "Compound": "Oc1ccccc1C1=NNC(c2ccc(Br)cc2)C1 (centres undefined)",
    "Unit": "µg/mL",
    "MIC90": 128
  },
  {
    "Compound": "NC(=S)N1N=C(c2ccccc2O)CC1c1ccccc1 (centres undefined)",
    "Unit": "µg/mL",
    "MIC90": 64
  }
]

Read the next record carefully.
Please provide the recorded MIC90 for Oc1ccccc1C1=NNC(c2ccc(Cl)cc2)C1 (centres undefined) , tested on Mycolicibacterium aurum.
128
